Recorded growth for the following molecules
System: SK-MEL-28 melanoma
Test: NCI-60 one-dose screen, 48 h (100 = growth as untreated, 0 = no growth, -100 = all killed)
Settings: 10 µM unless noted
About 83,000 compounds went through this panel and 20% of them were active in at least one assay; those are over-represented in the sample as a whole.
Note: unit % is implicit; provide only the numeric part.

- CCNc1nc2cc(Nc3ccnc4cc(Cl)ccc34)ccc2o1: 80.7
- O=C1c2cccc3c(-c4ccc5c(c4)ncn5C4CCCCC4)ccc(c23)C(=O)N1CCO: 116
- CCCCOc1ccc(/C(C)=N/Nc2cc(C)nc3ccc(Br)cc23)cc1: 106
- N#Cc1c(-c2cccc([N+](=O)[O-])c2)nc(SCC(=O)c2ccc(Cl)cc2)[nH]c1=O: 107
- Cc1cnc(C(=O)Nc2nc3ccc(S(=O)(=O)Nc4ccc(C5(C(F)(F)F)CC5)cc4)cc3[nH]2)cn1: 54.1

# lookup: "O=C(/C=C/c1c(-c2ccc(Cl)cc2)nn(-c2ccccc2)c1C(F)(F)F)c1ccc(Cl)cc1" on SK-MEL-28 melanoma, growth = 103

# lookup: "COC1=CC(=O)c2ccccc2C1=O" on SK-MEL-28 melanoma, growth = 90

# lookup: "COc1ccc(/C=C/c2nc(Nc3cccc(NC(C)=O)c3)c3ccccc3n2)cc1" on SK-MEL-28 melanoma, growth = 104

# lookup: "C=CC(=O)N[C@@H](/C=C/C(=O)OCC)Cc1ccc(-c2cc(Cl)cc(Cl)c2)cc1" on SK-MEL-28 melanoma, growth = 39.8

# lookup: "COc1ccccc1/C=C1\Oc2cc(OCCN3CCCC3)ccc2C1=O" on SK-MEL-28 melanoma, growth = 91.8

# lookup: "O=S(=O)(NCCNc1nccc(-c2c(-c3cccc(F)c3)nc3sccn23)n1)c1ccccc1" on SK-MEL-28 melanoma, growth = 54.3

# lookup: "CCN(CC)c1ccc(/C=N/NC(=O)CSc2nc3ccccc3c(=O)n2Cc2ccc(S(N)(=O)=O)cc2)c(O)c1" on SK-MEL-28 melanoma, growth = 33.1

----------
Test system: ACHN renal
Assay: NCI-60 one-dose screen, 48 h
Settings: 10 µM unless noted
Compounds without any hit were thinned out: in the full panel of roughly 83,000, 20% have a hit. Active and inactive are the calls of the source. Rule for the calls: active = growth percent below 10; inactive = the rest.
Give your call using only these classes: true (active), false (inactive)

Would you please look over these solved cases?
- Cc1nn(-c2ccccc2)c(Cl)c1/C=N\N=c1/sc2ccccc2n1C: false
- N/C(=N\C(N)=N\c1nc2ccccc2s1)c1cccc(Cl)c1: false
- COc1cc(/C(C)=C(\c2ccc(Cl)cc2)c2ccc(OCCN3CCCC3)cc2)ccc1F: false
- COc1cc(NC(C)CCCNC(=O)CCC(=O)NCCCNCCCCCCCCCCNCCCNC(=O)CCC(=O)NCCCC(C)Nc2cc(OC)cc3cccnc23)c2ncccc2c1 (stereo not given): false
- O=C(C[n+]1cccc2ccccc21)c1ccc(O)c(O)c1: false

Now look at this entry.
(Q) Please indicate how the test categorized "O=C(Nc1cccc(C(=O)N2CCc3ccc(Cl)cc32)c1)c1ccco1" .
(A) false

----------
Recorded growth for the following compounds
Tested on: NCI-H322M lung
Experiment: NCI-60 one-dose screen, 48 h (100 = growth as untreated, 0 = no growth, -100 = all killed)
Conditions: 10 µM unless noted
About 83,000 compounds went through this panel and 20% of them were active in at least one assay; those are over-represented in the sample as a whole. Calls of active or inactive are those of the source. Rule for the calls: active = growth percent below 10; inactive = the rest.

Lab note: "CCCCCC(=O)Oc1ccc(/C(=C(\C)c2ccccc2)c2ccc(OCCN3CCCCC3)cc2)cc1" gave growth of 83.8% (inactive)

Lab note: "Cc1cnc(C(=O)Nc2nc3ccc(S(=O)(=O)Nc4ccc(C(C)(C)C)cc4)cc3[nH]2)cn1" gave growth of 41.6% (inactive)

Lab note: C=C1C(=O)O[C@H]2[C@H]1CC/C(CNC(=O)C(C)c1ccc(CC(C)C)cc1)=C\CC[C@@]1(C)O[C@@H]21 (stereo not given in full) gave growth of 72.3% (inactive)

Lab note: "COc1ccc(/C=C/c2nc(Nc3ccc(S(=O)(=O)NC(C)=O)cc3)c3ccccc3n2)cc1" gave growth of 38.6% (inactive)

Lab note: "O=C(/C=C/c1ccc(Cl)cc1)c1ccc(NC(=O)N2CCN(c3cc4c(cc3F)c(=O)c(C(=O)O)cn4C3CC3)CC2)cc1" gave growth of 103% (inactive)

Lab note: "COc1cc(/C=C\c2cc(/C=C\c3ccc(O)c(OC)c3)n(C(=O)COc3ccccc3)n2)ccc1O" gave growth of 30.8% (inactive)

Lab note: "CCOC(=O)[C@@H](C)C[C@H](Cc1ccccc1)NC(=O)c1csc([C@@H](C[C@H](C(C)C)N(C)C(=O)[C@@H](NC(=O)[C@H]2C[C@H](O[Si](C)(C)C(C)(C)C)CCN2C)C(C)C)OC(C)=O)n1" gave growth of 25% [9.25 µM] (inactive)

Lab note: "CCN1CCN(CCNc2nccc(-c3c(-c4cccc(OC)c4)nc4occn34)n2)S1(=O)=O" gave growth of 111% (inactive)

Lab note: "COc1cc(/C=C2\COc3ccc(-c4ccccc4)cc3C2=O)cc(OC)c1" gave growth of 85.9% (inactive)

Lab note: COc1cc(/C=N/NC(=O)c2cnn3c2NC(c2ccccc2)C3)ccc1OCc1ccccc1 (stereo not given) gave growth of 28.6% (inactive)

----------
System: OVCAR-5 ovarian
Test: NCI-60 one-dose screen, 48 h (100 = growth as untreated, 0 = no growth, -100 = all killed)
Conditions: 10 µM unless noted
This is part of a sample that, as a whole, favours compounds with a hit. Of some 83,000 tested, about 20% had one in any assay.
Observable: growth (%)
Note: unit % is implicit; provide only the numeric part.

* COc1cc2oc(-c3cccc(C(=O)Nc4ccc5c(c4)OCO5)c3)cc(=O)c2c(O)c1OC | 88.9
* Cc1nc2sccn2c1-c1cn2ccsc2n1 | 87.7
* CCCCCC(=O)Oc1ccc(/C(=C(\C)c2ccccc2)c2ccc(OCCN3CCCCC3)cc2)cc1 | 88.3
* O=C(/C=C/c1ccc[nH]1)c1ccc(-n2ccc(C(F)(F)F)n2)c(F)c1 | 90.9

Lab note: "COc1cc(/C=C\c2cc(OC)c(OC)c(OC)c2)cc(NC(=O)/C=C/c2cc(OC)c(OC)c(OC)c2)c1OC" gave growth of 77.3

Lab note: CCCCCCCCO/N=C\c1c2c(O)c3c(O)c(C)c4c(c3c1O)C(=O)C(C)(O/C=C\C(OC)C(C)C(OC(C)=O)C(C)C(O)C(C)C(O)C(C)/C=C\C=C(\C)C(=O)N2)O4 (stereo unspecified) gave growth of 48.8

Lab note: "O=C1Nc2cc(-c3cccc([N+](=O)[O-])c3)ccc2/C1=C/c1ccc[nH]1" gave growth of 48.8

Lab note: COc1cc(NC(C)CCCNC(=O)CCC(=O)NCCCNCCCCCCCCNCCCNC(=O)CCC(=O)NCCCC(C)Nc2cc(OC)cc3cccnc23)c2ncccc2c1 (stereo unspecified) gave growth of 66.8

Lab note: "O=C1C=CC(=O)N1c1cccc(Cl)c1" gave growth of 111

Lab note: "CC(C)(C)c1cc(/C=N/NC(=O)c2ccccc2NC(=O)c2cccs2)c(O)c(C(C)(C)C)c1" gave growth of 67.7

Lab note: "COc1cc(CC(=O)c2ccc(O)c(OC)c2)ccc1O" gave growth of 97.9

----------
Test system: SN12C renal
Test: NCI-60 one-dose screen, 48 h (100 = growth as untreated, 0 = no growth, -100 = all killed)
Details: 10 µM unless noted
This is part of a sample that, as a whole, favours compounds with a hit. Of some 83,000 tested, about 20% had one in any assay.
Observable: growth (%)
Note: unit % is implicit; provide only the numeric part.

# example entries with known answers
* CCOC(=O)c1cc(C(=O)c2cc(OC)cc(OC)c2)n2ccc3ccccc3c12 | 81.2
* O=C1Nc2ccc(F)cc2/C1=C\c1c(-c2ccccc2)nc2ccccn12 | 80.4
* NC(=NCCCOc1ccc(F)cc1)Nc1ccc(I)cc1 | 81
* COc1ccc2nc(-c3ccc(-c4noc(-c5cc(OC)c(OC)c(OC)c5)n4)cc3)[nH]c2c1 | 80.7
* c1ccc2c(-c3c[nH]c4ccccc34)c3c(cc2c1)[nH]c1ccccc13 | 80.8

# lookup: "O=C(Cn1c(C(=O)c2ccccc2)nc2ccccc21)c1ccc(F)cc1" on SN12C renal, growth = 77.9

----------
Tested on: NCI-H226 lung
Experiment: NCI-60 one-dose screen, 48 h (100 = growth as untreated, 0 = no growth, -100 = all killed)
Conditions: 10 µM unless noted
Procedure: Growth inhibition of the NCI-H226 human Non-Small Cell Lung tumor cell line is measured as a screen for anti-cancer activity. Cells are grown in 96 well plates and exposed to the test compound for 48 hours. Compounds are tested at a single concentration, which is 10^-5 M for most compounds. The reported endpoint is percent growth (GI% or GIPRCNT), where numbers from 0 - 100% represent growth inhibition, and numbers from -100% - 0 represent cell death. […]
About 83,000 compounds went through this panel and 20% of them were active in at least one assay; those are over-represented in the sample as a whole.
Observable: growth (%)
Note: unit % is implicit; provide only the numeric part.

• COc1cc(/C=C2\COc3ccc(-c4ccccc4)cc3C2=O)cc(OC)c1 = 87.4
• O=S(=O)(Nc1ccc(-n2cnc3cc(-c4ccc(O)cc4)ccc32)cc1)c1ccccc1 = 92.1
• C/C(=N\Nc1cc(C)nc2ccc(Br)cc12)c1ccc([N+](=O)[O-])cc1 = 90

Lab note: "N#Cc1c(NC(=O)NCc2ccccc2)sc2c1CCCCC2" gave growth of 22.5

Lab note: "COc1cc2nc(-c3ccc(Cl)cc3)cc(OCCCN3CCOCC3)c2cc1OC" gave growth of -7.3
